Reported pIC50 by item:
test-target: human factor XIa (Homo sapiens, UniProt P03951)
Sequence (P03951 388-625 limits assumed): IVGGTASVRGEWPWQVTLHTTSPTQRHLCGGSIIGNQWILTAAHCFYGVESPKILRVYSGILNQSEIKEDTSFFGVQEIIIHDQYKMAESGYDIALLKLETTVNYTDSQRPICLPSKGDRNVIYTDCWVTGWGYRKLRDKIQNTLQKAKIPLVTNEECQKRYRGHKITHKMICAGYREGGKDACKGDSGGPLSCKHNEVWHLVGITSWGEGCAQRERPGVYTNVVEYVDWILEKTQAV
Sequence (P03951 19-387 partner limits assumed): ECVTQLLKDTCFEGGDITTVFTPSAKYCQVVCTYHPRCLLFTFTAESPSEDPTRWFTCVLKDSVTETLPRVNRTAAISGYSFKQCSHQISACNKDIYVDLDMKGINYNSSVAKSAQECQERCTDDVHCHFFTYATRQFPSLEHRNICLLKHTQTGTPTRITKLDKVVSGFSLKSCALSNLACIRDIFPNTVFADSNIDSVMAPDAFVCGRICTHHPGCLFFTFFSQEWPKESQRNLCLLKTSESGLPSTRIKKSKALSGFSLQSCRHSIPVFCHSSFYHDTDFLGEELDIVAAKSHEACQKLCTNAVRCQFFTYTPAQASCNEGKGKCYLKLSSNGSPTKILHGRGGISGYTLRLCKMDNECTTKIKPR
Counter-ions that a name gives are not always drawn.
On this scale, pIC50 is minus log10 of a concentration expressed in M (mol/L).

Illustrative cases are given below, each with its answer.
NC[C@H]1CC[C@H](C(=O)N[C@@H](Cc2ccc(-c3cccc4[nH]ncc34)cc2)C(=O)Nc2ccc(-c3nn[nH]n3)cc2)CC1 [Example 6, hydrochloride] | 8.05
Cc1cc2[nH]c(C3CC3)nc2cc1-c1ccc(C[C@H](NC(=O)[C@H]2CC[C@H](CN)CC2)C(=O)Nc2cc(F)c3c(=O)[nH][nH]c3c2)cc1 [Example 22, hydrochloride] | 9.30

Read the next record carefully.
Query: API: value(readout= pIC50, system= human factor XIa (Homo sapiens, UniProt P03951), query= Cc1ccc2[nH]ncc2c1-c1ccc(C[C@H](NC(=O)[C@H]2CC[C@H](CN)CC2)C(=O)Nc2ccc(-c3nn[nH]n3)cc2)cc1 [Example 18, hydrochloride] )
Response: 8.60

###

Counter-ions that a name gives are not always drawn.
For human plasmin (Homo sapiens, UniProt P00747), measured IC50 is reported for the entries below.
Please respond with the number in nM and leave the unit unwritten.

Reference set, count: 6
Cc1cc2[nH]c(C(C)C)nc2cc1-c1ccc(C[C@H](NC(=O)[C@H]2CC[C@H](CN)CC2)C(=O)Nc2ccc3nc(C(F)(F)C(F)(F)F)[nH]c3c2)cc1 [Example 25, hydrochloride] | 1.7
Cc1cc2nc(C(C)C)[nH]c2nc1-c1ccc(C[C@H](NC(=O)[C@H]2CC[C@H](CN)CC2)C(=O)Nc2ccc3[nH]c(=O)[nH]c3c2)cc1 [Example 37, hydrochloride] | 0.5
NC[C@H]1CC[C@H](C(=O)N[C@@H](Cc2ccc(-c3cc4nc(C5CC5)[nH]c4cc3Cl)cc2)C(=O)Nc2ccc3[nH]c(=O)[nH]c3c2)CC1 [Example 23, hydrochloride] | 0.95
Cc1cc2c(=O)n(C(C)C)[nH]c2cc1-c1ccc(C[C@H](NC(=O)[C@H]2CC[C@H](CN)CC2)C(=O)Nc2ccc3[nH]c(=O)[nH]c3c2)cc1 [Example 34, hydrochloride] | 1.7
Cc1cc2[nH]c(C3CC3)nc2cc1-c1ccc(C[C@H](NC(=O)[C@H]2CC[C@H](CN)CC2)C(=O)Nc2cc(F)c3c(=O)[nH][nH]c3c2)cc1 [Example 22, hydrochloride] | 0.6
NC[C@H]1CC[C@H](C(=O)N[C@@H](Cc2ccc(-c3ccc4c(c3)NC(=O)CC4)cc2)C(=O)Nc2ccc(-c3nn[nH]n3)c(F)c2)CC1 [Example 12, hydrochloride] | 5.9

Query: Form field - read-out: IC50; system: human plasmin (Homo sapiens, UniProt P00747); submitted item: Cc1cc2nc[nH]c2cc1-c1ccc(C[C@H](NC(=O)[C@H]2CC[C@H](CN)CC2)C(=O)Nc2ccc3c(=O)[nH][nH]c3c2)cc1 [Example 30, hydrochloride]
Sequence (P00747 581-810 limits assumed): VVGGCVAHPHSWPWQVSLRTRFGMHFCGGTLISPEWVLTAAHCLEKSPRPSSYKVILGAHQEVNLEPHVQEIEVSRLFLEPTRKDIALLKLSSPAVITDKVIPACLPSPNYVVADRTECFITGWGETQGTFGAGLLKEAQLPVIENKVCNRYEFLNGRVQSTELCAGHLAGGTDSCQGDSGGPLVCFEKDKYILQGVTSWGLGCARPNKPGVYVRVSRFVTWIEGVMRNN
Sequence (P00747 97-580 partner limits assumed): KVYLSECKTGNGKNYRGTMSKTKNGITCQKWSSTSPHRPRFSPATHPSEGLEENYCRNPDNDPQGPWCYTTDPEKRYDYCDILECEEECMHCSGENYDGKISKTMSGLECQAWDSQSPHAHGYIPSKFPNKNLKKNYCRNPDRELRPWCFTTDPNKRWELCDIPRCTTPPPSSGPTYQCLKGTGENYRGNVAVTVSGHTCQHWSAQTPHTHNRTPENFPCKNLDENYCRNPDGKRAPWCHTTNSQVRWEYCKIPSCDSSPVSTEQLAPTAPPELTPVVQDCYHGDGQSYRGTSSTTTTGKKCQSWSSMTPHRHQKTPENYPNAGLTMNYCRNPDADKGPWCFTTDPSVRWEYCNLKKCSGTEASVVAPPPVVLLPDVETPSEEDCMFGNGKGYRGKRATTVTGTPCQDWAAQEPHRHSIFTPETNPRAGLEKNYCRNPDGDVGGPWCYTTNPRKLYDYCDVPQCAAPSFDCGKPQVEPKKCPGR
Response: 5.9

Query: Any idea what IC50 came out for Cc1cc2nc(C3CC3)nn2cc1-c1ccc(C[C@H](NC(=O)[C@H]2CC[C@H](CN)CC2)C(=O)Nc2ccc3[nH]c(=O)[nH]c3c2)cc1 [Example 36, hydrochloride] on human plasmin (Homo sapiens, UniProt P00747)?
Response: 1.2

###

Where a name gives a salt, the structure may show the parent alone.
// pIC50 collected for human factor XIa (Homo sapiens)
# log scale: pIC50 equals minus log10 of the concentration in mol/L

Cc1cc2nc(C3CC3)nn2cc1-c1ccc(C[C@H](NC(=O)[C@H]2CC[C@H](CN)CC2)C(=O)Nc2ccc3[nH]c(=O)[nH]c3c2)cc1 [Example 36, hydrochloride] | 8.44
Cc1cc2nc[nH]c2cc1-c1ccc(C[C@H](NC(=O)[C@H]2CC[C@H](CN)CC2)C(=O)Nc2ccc3c(=O)[nH][nH]c3c2)cc1 [Example 8, hydrochloride] | 8.22
Cc1cc2nc(C(C)C)[nH]c2cc1-c1ccc(C[C@H](NC(=O)[C@H]2CC[C@H](CN)CC2)C(=O)Nc2ccc(-c3nnc(C(F)(F)C(F)(F)C(=O)O)[nH]3)cc2)cc1 [Example 24, hydrochloride] | 9.30
Cc1cc2[nH]c(C(C)C)nc2cc1-c1ccc(C[C@H](NC(=O)[C@H]2CC[C@H](CN)CC2)C(=O)Nc2ccc3[nH]c(=O)[nH]c3c2)cc1 | 8.51
Cn1cnc2cc(-c3ccc(C[C@H](NC(=O)[C@H]4CC[C@H](CN)CC4)C(=O)Nc4ccc(-c5nn[nH]n5)cc4)cc3)ccc21 [Example 16, hydrochloride] | 8.49

Query: Value wanted: pIC50 (human factor XIa (Homo sapiens)) of entry Cc1cc2nc[nH]c2cc1-c1ccc(C[C@H](NC(=O)C2CCC(CN)CC2)C(=O)Nc2ccc(-c3nn[nH]n3)cc2)cc1 (some centres unmarked) [Example 1, hydrochloride]
Response: 9.05

Query: For the record Cn1cnc2ccc(-c3ccc(C[C@H](NC(=O)[C@H]4CC[C@H](CN)CC4)C(=O)Nc4ccc(-c5nn[nH]n5)cc4)cc3)cc21 [Example 15, hydrochloride] , what value of pIC50 is listed for human factor XIa (Homo sapiens)?
Response: 8.42

Query: Query pIC50 on human factor XIa (Homo sapiens) for Cc1nc2cc(-c3ccc(C[C@H](NC(=O)[C@H]4CC[C@H](CN)CC4)C(=O)Nc4ccc(-c5nn[nH]n5)cc4)cc3)ccc2[nH]1 [Example 7, hydrochloride]
Response: 8.34

###

Where a name gives a salt, the structure may show the parent alone.
The listing below reports pIC50 for compounds tested on human factor XIa (Homo sapiens, UniProt P03951).
Keep in mind that pIC50 stands for -log10 of concentration in molar terms.

Field: example entries. Status: answers known.
Cc1cc2oc(C3CC3)nc2cc1-c1ccc(C[C@H](NC(=O)[C@H]2CC[C@H](CN)CC2)C(=O)Nc2ccc(-c3nnn[nH]3)cc2)cc1.Cl (relative stereo) [Example 26, hydrochloride] | 8.85
Cc1cc2nc[nH]c2cc1-c1ccc(C[C@H](NC(=O)[C@H]2CC[C@H](CN)CC2)C(=O)Nc2ccc3c(=O)[nH][nH]c3c2)cc1 [Example 30, hydrochloride] | 8.77

Alright, here's another compound for you.
Query: Request - read-out pIC50 | tested on human factor XIa (Homo sapiens, UniProt P03951) | compound Cc1cc2c(=O)n(C(C)C)[nH]c2cc1-c1ccc(C[C@H](NC(=O)[C@H]2CC[C@H](CN)CC2)C(=O)Nc2ccc3[nH]c(=O)[nH]c3c2)cc1 [Example 34, hydrochloride]
Response: 8.82
